biological target: Stb4 (UniProt P50104); assay: PBM E-score (8-mer binding enrichment) (E-score (-0.5 to 0.5)); higher = stronger / more preferred TF binding; settings: protein concentration: 200 nM; construct: GST-DNA-binding domain
Sequence (P50104 whole entry, the tested form may be a part): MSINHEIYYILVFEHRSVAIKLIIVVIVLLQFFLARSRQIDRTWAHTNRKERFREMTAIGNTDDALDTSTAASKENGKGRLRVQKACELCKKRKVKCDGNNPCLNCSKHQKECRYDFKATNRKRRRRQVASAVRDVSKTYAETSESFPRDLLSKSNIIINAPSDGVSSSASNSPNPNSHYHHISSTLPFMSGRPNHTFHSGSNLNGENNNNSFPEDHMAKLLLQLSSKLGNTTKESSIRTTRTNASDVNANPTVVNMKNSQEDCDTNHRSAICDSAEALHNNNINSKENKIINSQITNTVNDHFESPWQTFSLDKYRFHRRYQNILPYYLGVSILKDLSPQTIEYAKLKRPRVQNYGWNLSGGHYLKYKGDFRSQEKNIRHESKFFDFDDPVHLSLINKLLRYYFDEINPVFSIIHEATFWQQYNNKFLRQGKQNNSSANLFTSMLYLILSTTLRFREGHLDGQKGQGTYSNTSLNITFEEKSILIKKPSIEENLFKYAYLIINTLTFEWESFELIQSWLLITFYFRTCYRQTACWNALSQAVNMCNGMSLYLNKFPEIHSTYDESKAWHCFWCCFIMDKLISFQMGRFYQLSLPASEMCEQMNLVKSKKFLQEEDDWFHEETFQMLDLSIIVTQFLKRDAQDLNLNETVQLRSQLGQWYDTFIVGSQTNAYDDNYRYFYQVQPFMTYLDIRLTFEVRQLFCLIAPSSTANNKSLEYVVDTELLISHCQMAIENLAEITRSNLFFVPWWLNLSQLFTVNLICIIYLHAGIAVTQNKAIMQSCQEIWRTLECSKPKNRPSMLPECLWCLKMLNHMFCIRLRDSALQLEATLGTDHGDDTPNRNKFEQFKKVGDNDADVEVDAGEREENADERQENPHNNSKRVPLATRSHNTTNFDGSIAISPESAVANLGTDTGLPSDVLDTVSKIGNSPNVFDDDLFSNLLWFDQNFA
Whole data set: some 33,000 sequences, median “E-score (-0.5 to 0.5)” near -0.056, cut for the highest 2% near 0.38. This is one part of a sample in which the highest values are shown more often than they occur.
# PBM E-score per record follows
Enter the number alone.

Record excerpt, results attached:
Query block: Dear colleague, I am looking for the recorded PBM E-score of the following sequence: "GATCCCAC"
Result block: -0.00608

Query block: Dear colleague, I am looking for the recorded PBM E-score of the following sequence: "ACCGAAGC"
Result block: 0.287

Query block: Dear colleague, I am looking for the recorded PBM E-score of the following sequence: "CATCCGCG"
Result block: 0.285

Query block: Dear colleague, I am looking for the recorded PBM E-score of the following sequence: "ACCGAAAG"
Result block: 0.231

Query block: Dear colleague, I am looking for the recorded PBM E-score of the following sequence: "AACTCCGG"
Result block: 0.352

Query block: Dear colleague, I am looking for the recorded PBM E-score of the following sequence: "GATCCGAC"
Result block: 0.434

Continuing:
Query block: Dear colleague, I am looking for the recorded PBM E-score of the following sequence: "GACGAAGC"
Result block: -0.142

Query block: Dear colleague, I am looking for the recorded PBM E-score of the following sequence: "GCCGAAAC"
Result block: 0.397

Query block: Dear colleague, I am looking for the recorded PBM E-score of the following sequence: "GTCGAAAC"
Result block: -0.0645

Query block: Dear colleague, I am looking for the recorded PBM E-score of the following sequence: "ATCTCCGC"
Result block: 0.151

====

target: Stb4 (UniProt P50104); assay: PBM E-score (8-mer binding enrichment) (E-score (-0.5 to 0.5)); higher = stronger / more preferred TF binding; conditions: protein concentration: 200 nM; construct: GST-DNA-binding domain
Over roughly 33,000 sequences, “E-score (-0.5 to 0.5)” has its median near -0.056; the highest 2% begin near 0.38. The full list was thinned out, with the highest values kept by preference.
Please enter criterion met where PBM E-score is greater than or equal to 0.2, and criterion not met where it is lower.

Query block: Please check the record "CGAGCGCG" and state if its PBM E-score is at or above 0.2.
Result block: criterion met

Query block: Please check the record "CTGTCGGA" and state if its PBM E-score is at or above 0.2.
Result block: criterion met

Query block: Please check the record "CCTATGAG" and state if its PBM E-score is at or above 0.2.
Result block: criterion not met

Query block: Please check the record "AACCCGGA" and state if its PBM E-score is at or above 0.2.
Result block: criterion met

Query block: Please check the record "GATGCCGA" and state if its PBM E-score is at or above 0.2.
Result block: criterion met

Kindly consider the entry below.
Query block: Please check the record "ACTGACCT" and state if its PBM E-score is at or above 0.2.
Result block: criterion not met

====

biological target: Stb4 (UniProt P50104); test: PBM E-score (8-mer binding enrichment) (E-score (-0.5 to 0.5)); higher = stronger / more preferred TF binding; conditions: protein concentration: 200 nM; construct: GST-DNA-binding domain
The full ranking holds about 33,000 sequences; the median of “E-score (-0.5 to 0.5)” is about -0.056, and the highest 2% start at about 0.38. The entries come from a sample that favours the highest values as a whole.
Please enter true where PBM E-score is greater than or equal to 0.1, and false where it is lower.

// below: answered sequences
Query block: Please check the record "AGTAGGGG" and state if its PBM E-score is at or above 0.1.
Result block: false

Query block: Please check the record "CAGCGCGG" and state if its PBM E-score is at or above 0.1.
Result block: true

Query block: Please check the record "GACTAGCA" and state if its PBM E-score is at or above 0.1.
Result block: false

Query block: Please check the record "CGGATCCG" and state if its PBM E-score is at or above 0.1.
Result block: true

Continuing:
Query block: Please check the record "ACCGGTTC" and state if its PBM E-score is at or above 0.1.
Result block: true

Query block: Please check the record "ATGCTGTC" and state if its PBM E-score is at or above 0.1.
Result block: false

====

target: Stb4 (UniProt P50104); assay: PBM E-score (8-mer binding enrichment) (E-score (-0.5 to 0.5)); higher = stronger / more preferred TF binding; conditions: protein concentration: 200 nM; construct: GST-DNA-binding domain
Whole data set: some 33,000 sequences, median “E-score (-0.5 to 0.5)” near -0.056, cut for the highest 2% near 0.38. For the sample, the highest values were picked, then their nearest neighbours and some sequences at random.
property-name: PBM E-score

Query block: Dear colleague, I am looking for the recorded PBM E-score of the following sequence: "TGGCTAAA"
Result block: 0.0298

Continuing:
Query block: Dear colleague, I am looking for the recorded PBM E-score of the following sequence: "AGGCGGAA"
Result block: 0.278

Query block: Dear colleague, I am looking for the recorded PBM E-score of the following sequence: "AAACTCGG"
Result block: 0.419

Query block: Dear colleague, I am looking for the recorded PBM E-score of the following sequence: "ATTCTCGA"
Result block: -0.194

====

target: Stb4 (UniProt P50104); assay: PBM E-score (8-mer binding enrichment) (E-score (-0.5 to 0.5)); higher = stronger / more preferred TF binding; settings: protein concentration: 200 nM; construct: GST-DNA-binding domain
Over roughly 33,000 sequences, “E-score (-0.5 to 0.5)” has its median near -0.056; the highest 2% begin near 0.38. This excerpt belongs to a sample that is enriched for the highest values.
property-name: PBM E-score

Query block: Dear colleague, I am looking for the recorded PBM E-score of the following sequence: "CGGACCTC"
Result block: 0.124

Query block: Dear colleague, I am looking for the recorded PBM E-score of the following sequence: "CCGAAAAC"
Result block: 0.41

Query block: Dear colleague, I am looking for the recorded PBM E-score of the following sequence: "CAAAGCAA"
Result block: -0.0355

Now turn to the next sequence.
Query block: Dear colleague, I am looking for the recorded PBM E-score of the following sequence: "AGGAAGAA"
Result block: -0.278

====

target: Stb4 (UniProt P50104); assay: PBM E-score (8-mer binding enrichment) (E-score (-0.5 to 0.5)); higher = stronger / more preferred TF binding; conditions: protein concentration: 200 nM; construct: GST-DNA-binding domain
Whole data set: some 33,000 sequences, median “E-score (-0.5 to 0.5)” near -0.056, cut for the highest 2% near 0.38. The sample holds the highest values, similar sequences and a random draw of the others, so the mix is not that of the screen.
property-name: PBM E-score
Enter the number alone.

Record excerpt, results attached:
Query block: Look up PBM E-score with Stb4 (UniProt P50104) for this sequence: "CACTCGGC"
Result block: 0.402

Query block: Look up PBM E-score with Stb4 (UniProt P50104) for this sequence: "CCTATTCA"
Result block: -0.0251

Query block: Look up PBM E-score with Stb4 (UniProt P50104) for this sequence: "ATTTTCCC"
Result block: 0.0682

Query block: Look up PBM E-score with Stb4 (UniProt P50104) for this sequence: "GACTCGGA"
Result block: 0.451

Query block: Look up PBM E-score with Stb4 (UniProt P50104) for this sequence: "CATTTCCC"
Result block: 0.18

Continuing:
Query block: Look up PBM E-score with Stb4 (UniProt P50104) for this sequence: "CACCGTCA"
Result block: -0.13

Query block: Look up PBM E-score with Stb4 (UniProt P50104) for this sequence: "CGGGAAGC"
Result block: 0.299

====

molecular target: Stb4 (UniProt P50104); test: PBM E-score (8-mer binding enrichment) (E-score (-0.5 to 0.5)); higher = stronger / more preferred TF binding; conditions: protein concentration: 200 nM; construct: GST-DNA-binding domain
Whole data set: some 33,000 sequences, median “E-score (-0.5 to 0.5)” near -0.056, cut for the highest 2% near 0.38. For the sample, the highest values were picked, then their nearest neighbours and some sequences at random.
Please enter True where PBM E-score is greater than or equal to 0.2, and False where it is lower.

Query block: Please check the record "ATAAACCC" and state if its PBM E-score is at or above 0.2.
Result block: False

Query block: Please check the record "AAGGTACA" and state if its PBM E-score is at or above 0.2.
Result block: False

Query block: Please check the record "CCCCCGGA" and state if its PBM E-score is at or above 0.2.
Result block: False

Query block: Please check the record "AAGAAACG" and state if its PBM E-score is at or above 0.2.
Result block: False

Query block: Please check the record "CGAGCCGA" and state if its PBM E-score is at or above 0.2.
Result block: True

Continuing:
Query block: Please check the record "AGAGCCGG" and state if its PBM E-score is at or above 0.2.
Result block: True

Query block: Please check the record "AGCTCGGC" and state if its PBM E-score is at or above 0.2.
Result block: True

Query block: Please check the record "ATCGGCCG" and state if its PBM E-score is at or above 0.2.
Result block: True

Query block: Please check the record "CATTTTGA" and state if its PBM E-score is at or above 0.2.
Result block: False

Query block: Please check the record "CCAGGTCG" and state if its PBM E-score is at or above 0.2.
Result block: False

Query block: Please check the record "CGAGACGC" and state if its PBM E-score is at or above 0.2.
Result block: False

Query block: Please check the record "GGCCCGGA" and state if its PBM E-score is at or above 0.2.
Result block: True
